system: human SMAD7 mRNA; assay: Antisense inhibition of human SMAD7 mRNA expression in Hep3B cells by 3-10-3 cEt gapmers, 10,000 nM, electroporation (Example 2); format: cell-based; settings: Hep3B cells, electroporation with 10,000 nM antisense oligonucleotide, approximately 24 hours, primer probe set RTS5062, relative to untreated control cells
Strand notation (5' to 3'): a small letter for the sugar, then the base; units joined by * are phosphorothioate-linked, units joined directly phosphodiester-linked; [ ] holds rarer units or linkages, { } end groups; capitals alone tell only the bases. k = constrained ethyl (cEt); [5mC] = 5-methylcytosine; d = 2'-deoxy (DNA)
measure: % inhibition of SMAD7 mRNA expression (%)
API: value field is a number in %; no unit string.

| substance | % inhibition of SMAD7 mRNA expression / % |
| --- | --- |
| 799004 (antisense kG*k[5mC]*kA*d[5mC]*dA*d[5mC]*dA*d[5mC]*dA*dG*d[5mC]*d[5mC]*dG*k[5mC]*kA*k[5mC]) [compound 799004] | 0 |
| 799342 (k[5mC]*kT*kT*dA*dT*d[5mC]*dT*dG*dT*dG*d[5mC]*dG*dG*kA*kA*kG; antisense) [compound 799342] | 44 |

Now consider the entry below.
Note down % inhibition of SMAD7 mRNA expression recorded for 798692 (antisense kG*kG*kG*d[5mC]*dG*d[5mC]*dA*d[5mC]*dG*dG*d[5mC]*dT*d[5mC]*k[5mC]*kT*k[5mC]) [compound 798692] 48

###

system: human SMAD7 mRNA; experiment: Antisense inhibition of human SMAD7 mRNA expression in Hep3B cells by 3-10-3 cEt gapmers, 10,000 nM, electroporation (Example 2); format: cell-based; settings: Hep3B cells, electroporation with 10,000 nM antisense oligonucleotide, approximately 24 hours, SMAD7 mRNA by RT-PCR (RTS5062), relative to untreated control cells
Strand notation (5' to 3'): a small letter for the sugar, then the base; units joined by * are phosphorothioate-linked, units joined directly phosphodiester-linked; [ ] holds rarer units or linkages, { } end groups; capitals alone tell only the bases. k = constrained ethyl (cEt); [5mC] = 5-methylcytosine; d = 2'-deoxy (DNA)
measure: % Inhibition (%)
API: value field is a number in %; no unit string.

Past entries and their recorded results:
| substance | % Inhibition [%] |
| --- | --- |
| 772606 (kA*kG*k[5mC]*d[5mC]*dA*dT*dT*d[5mC]*d[5mC]*d[5mC]*d[5mC]*dT*dG*kA*kG*kG; antisense) [compound 772606] | 41 |
| 799886 (antisense kA*k[5mC]*k[5mC]*dA*dA*dG*d[5mC]*dT*dA*d[5mC]*dT*dT*dT*kT*kG*k[5mC]) [compound 799886] | 25 |

Now consider the entry below.
Note down % Inhibition recorded for 799491 (antisense kG*kG*k[5mC]*dA*dG*dG*d[5mC]*dA*dG*dG*dA*dA*dA*kT*kG*kG) [compound 799491] 38

###

Tested on: human SMAD7 mRNA
Assay: Dose-dependent inhibition of human SMAD7 mRNA expression in Hep3B cells (Example 3, Study 1 and 2)
Format: cell-based
Details: 6670.0 nM, electroporation, approximately 16 hours, Study 2
Description: The antisense oligonucleotides were tested in a series of experiments that had similar culture conditions as described below. Cells were plated at a density of 20,000 cells per well and transfected using electroporation with 0.31 μM, 1.25 μM, 5.00 μM, or 20.00 μM concentrations of antisense oligonucleotide, as specified in the Tables below. […] After a treatment period of approximately 16 hours, RNA was isolated from the cells and SMAD7 mRNA levels were measured by quantitative real-time PCR. […]
Strand notation (5' to 3'): a small letter for the sugar, then the base; units joined by * are phosphorothioate-linked, units joined directly phosphodiester-linked; [ ] holds rarer units or linkages, { } end groups; capitals alone tell only the bases. k = constrained ethyl (cEt); [5mC] = 5-methylcytosine; d = 2'-deoxy (DNA)
Use 1 when the recorded % inhibition of SMAD7 mRNA expression is no lower than 60%; use 0 when it is lower.

Example entries and their recorded answers appear below.
| substance | assay-target | label-value |
| --- | --- | --- |
| 799631 (k[5mC]*k[5mC]*kA*dA*dA*dT*d[5mC]*dA*d[5mC]*dA*dA*dA*dG*k[5mC]*kA*kG; antisense) [compound 799631] | human SMAD7 mRNA | 0 |
| 799781 (kG*kT*k[5mC]*dA*dA*dT*dA*d[5mC]*dA*dT*dA*dT*dT*kT*kG*k[5mC]; antisense) [compound 799781] | human SMAD7 mRNA | 1 |
| 830025 (antisense TTTGTAAATCGAAAGC; 3-10-3 cEt gapmer, further chemistry not given here) [compound 830025] | human SMAD7 mRNA | 1 |
| 799708 (antisense k[5mC]*kA*kA*dA*d[5mC]*dT*dT*dG*dT*dG*dG*dT*dA*kA*kA*kA) [compound 799708] | human SMAD7 mRNA | 0 |
| 799412 (antisense kT*kT*k[5mC]*dT*dT*dA*d[5mC]*dA*d[5mC]*dA*dG*d[5mC]*dA*kG*k[5mC]*kG) [compound 799412] | human SMAD7 mRNA | 1 |

Does the substance 799608 (kA*k[5mC]*kG*dA*dT*d[5mC]*dA*dA*d[5mC]*dT*dT*d[5mC]*dT*kT*kG*kA; antisense) [compound 799608] have recorded % inhibition of SMAD7 mRNA expression that is 60% or more? 1

Does the substance 799722 (antisense kG*k[5mC]*kA*dG*dA*dG*dT*dG*dA*dG*dA*dA*d[5mC]*kA*kA*kG) [compound 799722] have recorded % inhibition of SMAD7 mRNA expression that is 60% or more? 0

Does the substance 800031 (kA*kG*kA*dA*dA*d[5mC]*dA*d[5mC]*dA*dG*dT*dT*d[5mC]*k[5mC]*k[5mC]*kT; antisense) [compound 800031] have recorded % inhibition of SMAD7 mRNA expression that is 60% or more? 0

Does the substance 799668 (antisense kG*kA*k[5mC]*dA*dG*dA*dT*dG*d[5mC]*d[5mC]*dA*dG*d[5mC]*kA*kA*kG) [compound 799668] have recorded % inhibition of SMAD7 mRNA expression that is 60% or more? 0

Does the substance 830131 (antisense k[5mC]*k[5mC]*k[5mC]*dA*d[5mC]*d[5mC]*dT*d[5mC]*d[5mC]*dG*dA*dG*dG*k[5mC]*kA*k[5mC]) [compound 830131] have recorded % inhibition of SMAD7 mRNA expression that is 60% or more? 0

Recorded values, source patent US10517889B2.
